ASSAYED TARGET: Chromo domain-containing protein 1 (Saccharomyces cerevisiae (strain ATCC 204508 / S288c) (Baker's yeast)) (UniProt P32657)
Sequence (P32657 whole entry, the tested form may be a part): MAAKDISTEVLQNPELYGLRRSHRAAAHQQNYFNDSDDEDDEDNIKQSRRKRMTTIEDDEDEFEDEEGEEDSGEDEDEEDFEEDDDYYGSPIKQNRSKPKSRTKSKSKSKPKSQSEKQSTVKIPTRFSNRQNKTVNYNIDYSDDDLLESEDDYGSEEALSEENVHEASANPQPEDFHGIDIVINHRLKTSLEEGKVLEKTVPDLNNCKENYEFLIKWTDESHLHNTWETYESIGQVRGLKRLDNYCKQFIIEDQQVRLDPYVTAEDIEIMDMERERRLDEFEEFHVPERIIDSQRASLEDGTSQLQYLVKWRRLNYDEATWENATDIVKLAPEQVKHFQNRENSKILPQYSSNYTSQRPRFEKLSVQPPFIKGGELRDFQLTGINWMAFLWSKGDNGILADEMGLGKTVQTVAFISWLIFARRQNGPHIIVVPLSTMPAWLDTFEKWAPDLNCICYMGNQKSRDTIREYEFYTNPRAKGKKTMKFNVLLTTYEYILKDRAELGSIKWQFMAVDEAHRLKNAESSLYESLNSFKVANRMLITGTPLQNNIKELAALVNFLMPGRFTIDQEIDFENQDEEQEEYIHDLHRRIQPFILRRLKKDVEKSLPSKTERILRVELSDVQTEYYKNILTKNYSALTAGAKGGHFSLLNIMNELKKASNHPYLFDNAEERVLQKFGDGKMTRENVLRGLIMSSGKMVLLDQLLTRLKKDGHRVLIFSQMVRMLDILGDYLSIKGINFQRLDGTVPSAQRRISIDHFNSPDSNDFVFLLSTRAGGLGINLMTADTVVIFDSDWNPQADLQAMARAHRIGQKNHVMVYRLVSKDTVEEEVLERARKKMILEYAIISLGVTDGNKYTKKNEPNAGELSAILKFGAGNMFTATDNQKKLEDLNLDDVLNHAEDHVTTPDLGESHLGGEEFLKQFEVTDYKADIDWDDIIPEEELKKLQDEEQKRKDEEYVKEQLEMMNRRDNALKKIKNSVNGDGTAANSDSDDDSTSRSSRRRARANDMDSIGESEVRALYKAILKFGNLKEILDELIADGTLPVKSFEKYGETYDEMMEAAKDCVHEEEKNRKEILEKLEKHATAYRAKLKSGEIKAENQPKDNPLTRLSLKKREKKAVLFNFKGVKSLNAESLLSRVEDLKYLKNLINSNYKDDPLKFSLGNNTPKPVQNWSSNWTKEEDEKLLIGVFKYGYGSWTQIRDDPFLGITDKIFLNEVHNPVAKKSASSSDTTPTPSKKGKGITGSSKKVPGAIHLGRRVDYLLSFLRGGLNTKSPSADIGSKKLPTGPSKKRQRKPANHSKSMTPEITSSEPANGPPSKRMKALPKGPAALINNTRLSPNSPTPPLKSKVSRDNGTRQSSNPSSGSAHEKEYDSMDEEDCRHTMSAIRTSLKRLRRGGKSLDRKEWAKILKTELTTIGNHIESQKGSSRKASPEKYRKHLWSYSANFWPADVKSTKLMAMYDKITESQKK
ASSAY TEXT: ScCHD-1 Enzyme Inhibition Assay
Format: functional
Parameters: scale not given: in the data most compounds retested in dose-response had high values
TEST PARAMETERS: 30 µM
QUANTITY: Percent Effect

[[record]]
compound = "Cc1cc(N2CCC3(CCC(=O)N(CC4CC4)C3)CC2)nc(N)n1"
quantity = "Percent Effect"
result = "-3.15%"

[[record]]
compound = "CCS(=O)(=O)N1CCO[C@H]2[C@H](OCCCn3cccn3)CC[C@@H]21"
quantity = "Percent Effect"
result = "-1.55%"

[[record]]
compound = "COc1cccc(CN2CCN(c3ccc4nncn4n3)C(C)C2)c1 (stereo not drawn)"
quantity = "Percent Effect"
result = "5.81%"

[[record]]
compound = "O=C(CN1CC(n2cccn2)C1)NCCCc1ccccc1"
quantity = "Percent Effect"
result = "1.45%"

[[record]]
compound = "Cc1ccc(CNC2CCN(CCc3ccncc3)CC2)cc1C"
quantity = "Percent Effect"
result = "29.8%"

[[record]]
compound = "Nc1nc(C2CCN(C(=O)c3cncs3)CC2)cs1"
quantity = "Percent Effect"
result = "-8.22%"

[[record]]
compound = "CC(C)NC(=O)C1CN(C(=O)c2ccco2)CC12CCOCC2 (stereo not drawn)"
quantity = "Percent Effect"
result = "-4.15%"

[[record]]
compound = "CN(C)c1cc(C(=O)N2CCN(S(C)(=O)=O)CC2)ccn1"
quantity = "Percent Effect"
result = "-0.991%"

[[record]]
compound = "CCC(O)CN1CCN(C(=O)c2cccn2Cc2ccccc2)CC1 (stereo not drawn)"
quantity = "Percent Effect"
result = "-3.89%"

[[record]]
compound = "O=c1cc2c(nn1CN1CCOCC1)CCC2"
quantity = "Percent Effect"
result = "-8.17%"

[[record]]
compound = "CS(=O)(=O)N1CCC2(CC1)CC(CC(=O)NC1CC1)c1ccccc12 (stereo not drawn)"
quantity = "Percent Effect"
result = "0.815%"

[[record]]
compound = "CC(=O)c1cccc(NC(=O)COc2c(C)n(C)ccc2=O)c1"
quantity = "Percent Effect"
result = "-2.85%"

[[record]]
compound = "COc1ccc(C(=O)N2C[C@@H](CN3CCOCC3)[C@@H](CO)C2)c(C)c1"
quantity = "Percent Effect"
result = "-1.95%"

[[record]]
compound = "O=C(c1cccn1Cc1cccs1)N1CCN(C(=O)C2CC2)CC1"
quantity = "Percent Effect"
result = "1.63%"

[[record]]
compound = "CCCS(=O)(=O)N1CCN(c2cc(-n3cnc(C)c3C)nc(C)n2)CC1"
quantity = "Percent Effect"
result = "2.9%"

[[record]]
compound = "Cc1noc(CN2CCN(Cc3cccs3)CC2)n1"
quantity = "Percent Effect"
result = "-5.19%"

[[record]]
compound = "Cc1nc(C2CCCN(C(=O)c3ccco3)C2)no1 (stereo not drawn)"
quantity = "Percent Effect"
result = "-4.36%"

[[record]]
compound = "O=C(CN1CCCCC1C1OCCO1)Nc1ccc(F)c(F)c1 (stereo not drawn)"
quantity = "Percent Effect"
result = "2.05%"

[[record]]
compound = "Cc1ccc2cc(CNCCCN3CCOCC3)c(=O)[nH]c2c1"
quantity = "Percent Effect"
result = "-7.66%"

[[record]]
compound = "Cc1cnc(C(=O)N2CCc3ncnc(C)c3CC2)cn1"
quantity = "Percent Effect"
result = "-2.02%"

[[record]]
compound = "Cc1ccc(C(=O)NC(CN2CCCC2=O)c2ccccc2)c(=O)[nH]1 (stereo not drawn)"
quantity = "Percent Effect"
result = "-5.93%"

[[record]]
compound = "CN(Cc1cccc(F)c1)C(=O)CN1CCOC(Cn2cccn2)C1 (stereo not drawn)"
quantity = "Percent Effect"
result = "-0.994%"

[[record]]
compound = "CC(C(=O)NCCCn1ccnc1)n1cc(Br)cn1 (stereo not drawn)"
quantity = "Percent Effect"
result = "-2%"

[[record]]
compound = "CC(C)NC(=O)N1C[C@H]2C[C@H](C(=O)NCc3ccccc3)[C@@H](C1)O2"
quantity = "Percent Effect"
result = "3.3%"

[[record]]
compound = "CC(=O)N1CCCC1c1cc(N2CCN(C3CCCC3)CC2)cc(C)n1 (stereo not drawn)"
quantity = "Percent Effect"
result = "-23.3%"

[[record]]
compound = "CC(=O)NCCNC(=O)c1sc(-c2ccc(C)cc2C)nc1C"
quantity = "Percent Effect"
result = "7.83%"

[[record]]
compound = "Cc1ccc(NC(=O)CNc2cccc3c2CCCC3)c(Br)c1"
quantity = "Percent Effect"
result = "-12.9%"

[[record]]
compound = "C1CC(CN2CCOCC3(CCN(C4CCOCC4)C3)C2)CCO1 (stereo not drawn)"
quantity = "Percent Effect"
result = "0.2%"

[[record]]
compound = "CC(C)N1CCN(C(=O)Nc2cnn(CC(N)=O)c2)CC1"
quantity = "Percent Effect"
result = "-6.52%"

[[record]]
compound = "O=C(Nc1nncs1)NC1CCOc2ccccc21 (stereo not drawn)"
quantity = "Percent Effect"
result = "-8.1%"

[[record]]
compound = "Cc1cc(C(=O)N2CCC(c3nccn3CCCN(C)C)CC2)no1"
quantity = "Percent Effect"
result = "-13.1%"

[[record]]
compound = "CC(C)c1nc(C2CCCN(Cc3nnc(C4CC4)o3)C2)no1 (stereo not drawn)"
quantity = "Percent Effect"
result = "-1.26%"

[[record]]
compound = "Cn1ncc2c(N3CCN(C(N)=O)CC3)nc(C3CCCC3)nc21"
quantity = "Percent Effect"
result = "-4.35%"

[[record]]
compound = "CC(NC(=O)Cc1cccs1)c1nnc2n1CCCCC2 (stereo not drawn)"
quantity = "Percent Effect"
result = "1.56%"

[[record]]
compound = "Cc1ccn2cc(C(=O)N3CCCC3c3c(C)nn(C)c3C)nc2c1 (stereo not drawn)"
quantity = "Percent Effect"
result = "-3.05%"

[[record]]
compound = "CN1CCN(c2ncc3c(=O)n(-c4cccc(F)c4)c(=O)[nH]c3n2)CC1"
quantity = "Percent Effect"
result = "92.2%"

[[record]]
compound = "O=C(c1n[nH]c2c1CCN(Cc1nccs1)C2)N1CCCC1"
quantity = "Percent Effect"
result = "-10.3%"

[[record]]
compound = "COc1ccccc1OCC(=O)NS(=O)(=O)c1ccccc1Br"
quantity = "Percent Effect"
result = "-9.19%"

[[record]]
compound = "c1cc(CN2CCCC(c3noc(C4CC4)n3)C2)no1 (stereo not drawn)"
quantity = "Percent Effect"
result = "-4.15%"

[[record]]
compound = "CC(C)Cc1noc(CN2CCN(C(=O)c3ccco3)CC2)n1"
quantity = "Percent Effect"
result = "-2.76%"

[[record]]
compound = "COCc1nc(N(C)C)ncc1C(=O)NC(C)C"
quantity = "Percent Effect"
result = "-0.879%"

[[record]]
compound = "CCc1cnc(C)nc1NCCN1CCCCCC1"
quantity = "Percent Effect"
result = "-4.71%"

[[record]]
compound = "Cc1ccc(CN2CCCC3(CCN(S(=O)(=O)N(C)C)C3)C2)o1 (stereo not drawn)"
quantity = "Percent Effect"
result = "-3.25%"

[[record]]
compound = "c1ccc(-c2ncc(CNC3CCc4ncnn4C3)cn2)cc1 (stereo not drawn)"
quantity = "Percent Effect"
result = "-13.8%"

[[record]]
compound = "Cc1cnn(CC2CCCCN2CCCS(N)(=O)=O)c1 (stereo not drawn)"
quantity = "Percent Effect"
result = "-12.4%"

[[record]]
compound = "CC(C)c1nc2c(n1C)CCN(CC(=O)Nc1nccs1)C2"
quantity = "Percent Effect"
result = "-18%"

[[record]]
compound = "CCCc1cc(C(=O)N2CCCC(n3ccnc3C)C2)[nH]n1 (stereo not drawn)"
quantity = "Percent Effect"
result = "-1.51%"

[[record]]
compound = "CCC(CNC(=O)c1ccc(=O)[nH]n1)N1CCc2ccccc2C1 (stereo not drawn)"
quantity = "Percent Effect"
result = "-3.16%"


Reference source for all entries: ChEMBL document CHEMBL3988442
